system: HIV-1NL4-3 wt; test: Light assay with wild-type HI reporter virus in MT4 7F2 cells; type: cell-based; settings: Human immunodeficiency virus 1, 2% FCS

{"columns": ["molecule", "measured target", "measurement units", "operator", "EC50"],
 "data": [
  ["N#Cc1cccc(-c2oc(C(=O)N3CC[S+]([O-])C3)cc2-c2cc(F)cc(Cl)c2)c1 (centres unmarked)", "HIV-1NL4-3 wt", "nM", "<", 1.5],
  ["N#Cc1cc(-c2oc(C(=O)N3CNC(=O)C3)cc2-c2cc(F)cc(Cl)c2)ccc1F", "HIV-1NL4-3 wt", "nM", "=", 2],
  ["N#Cc1cc(F)cc(-c2cc(C(=O)N3CCOCC3)oc2-c2cccc(C#N)c2)c1", "HIV-1NL4-3 wt", "nM", "<", 1.5],
  ["N#Cc1cccc(-c2oc(C(=O)N3CCSC3)cc2-c2cc(F)cc(Cl)c2)c1", "HIV-1NL4-3 wt", "nM", "=", 4.5],
  ["N#Cc1cc(-c2oc(C(=O)N3CCNC(=O)C3)cc2-c2cccc(Cl)c2)ccc1F", "HIV-1NL4-3 wt", "nM", "=", 4],
  ["O=C1CN(C(=O)c2cc(-c3cccc(Cl)c3)c(-c3cccc(Cl)c3)o2)CCN1", "HIV-1NL4-3 wt", "nM", "=", 25],
  ["O=C1CN(C(=O)c2cc(-c3cccc(Cl)c3)c(-c3ccc(F)cc3)o2)CCN1", "HIV-1NL4-3 wt", "nM", "=", 48],
  ["Cc1cc(-c2oc(C(=O)N3CCNC(=O)C3)cc2-c2cccc(Cl)c2)ccc1F", "HIV-1NL4-3 wt", "nM", "=", 15]
]}
